Listed next: entries and their corresponding melting point.

structure as smiles: Cc1cc(I)ccc1Nc1cc(F)ccc1C(=O)O
readout kind: melting point
value measured: 224 to 229.5 °C
--
structure as smiles: Cc1cc(I)ccc1Nc1cc(F)ccc1C(=O)NO
readout kind: melting point
value measured: 61 to 75 °C
--
structure as smiles: Cc1cc(I)ccc1Nc1ccccc1-c1nnn[nH]1
readout kind: melting point
value measured: 231 °C (dec.)
--
structure as smiles: COc1ccc(Nc2ccc(I)cc2)c(C(=O)O)c1
readout kind: melting point
value measured: 208 to 211 °C
--
structure as smiles: Cc1cc(I)ccc1Nc1c(C(=O)NO)cc(Br)c(F)c1F
readout kind: melting point
value measured: 80 to 90 °C

// switching to the query compound
For reference, reported melting point for `Cc1cc(I)ccc1Nc1ccccc1C(=O)O` stands at 218 to 223 °C

Measured values drawn from patent US6696440B1 for this set.
